Target: FGFR1 (Homo sapiens, UniProt P11362)
Construct: made in house; host or cells: E. coli derived from BL21, infected with T7 phage
Sequence (P11362 22-822): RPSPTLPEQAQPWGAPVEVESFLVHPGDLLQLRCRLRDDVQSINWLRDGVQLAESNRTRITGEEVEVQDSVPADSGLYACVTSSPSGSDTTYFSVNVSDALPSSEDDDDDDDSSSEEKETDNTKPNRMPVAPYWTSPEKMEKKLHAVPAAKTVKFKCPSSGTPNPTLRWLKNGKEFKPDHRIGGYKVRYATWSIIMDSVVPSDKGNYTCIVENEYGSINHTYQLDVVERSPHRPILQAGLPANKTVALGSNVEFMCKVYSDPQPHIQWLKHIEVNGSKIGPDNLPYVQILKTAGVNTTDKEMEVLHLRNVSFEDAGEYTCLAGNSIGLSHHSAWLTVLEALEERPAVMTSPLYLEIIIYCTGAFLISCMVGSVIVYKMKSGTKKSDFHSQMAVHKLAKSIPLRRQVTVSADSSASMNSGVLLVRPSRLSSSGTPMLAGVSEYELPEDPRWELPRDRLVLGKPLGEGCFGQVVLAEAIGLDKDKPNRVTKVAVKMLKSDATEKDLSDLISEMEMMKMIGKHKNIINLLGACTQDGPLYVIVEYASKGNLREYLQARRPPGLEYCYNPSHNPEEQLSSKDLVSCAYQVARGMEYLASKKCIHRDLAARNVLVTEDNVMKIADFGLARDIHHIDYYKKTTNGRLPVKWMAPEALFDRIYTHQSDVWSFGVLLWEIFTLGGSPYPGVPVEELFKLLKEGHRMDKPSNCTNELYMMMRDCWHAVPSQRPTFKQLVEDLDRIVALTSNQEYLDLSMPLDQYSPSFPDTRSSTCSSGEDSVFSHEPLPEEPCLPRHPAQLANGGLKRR
Assay: Kinase binding assay (kinase-tagged T7 phage, affinity beads, qPCR readout), FGFR1
Settings: FGFR binding data
reportedMetric: Kd

Quick one: give measured Kd for `C=CC(=O)Nc1ccc2c(c1)c(C)cn2-c1nc(Nc2cccnc2C)ncc1F` 250 to 1000 nM

Quick one: give measured Kd for `C=CC(=O)Nc1ccc2c(ccn2-c2nc(Nc3cccc(OCCN4CCOCC4)c3)ncc2C)c1C` 250 to 1000 nM

---

The reader will find reported Kd values listed item by item below.
Biological target: FGFR1 (Homo sapiens)
Construct: made in house; host or cells: E. coli derived from BL21, infected with T7 phage
Experiment: Kinase binding assay (kinase-tagged T7 phage, affinity beads, qPCR readout), FGFR1
Details: FGFR binding data
Description: Kinase-tagged T7 phage strains were prepared in an E. coli host derived from the BL21 strain. E. coli were grown to log-phase and infected with T7 phage and incubated with shaking at 32° C. until lysis. The lysates were centrifuged and filtered to remove cell debris. […] Test compounds were prepared as 111× stocks in 100% DMSO. Kds were determined using an 11-point 3-fold compound dilution series with three DMSO control points. […] The kinase concentration in the eluates was measured by qPCR. […]

Solved entries:
{"inputSmiles": "C=CC(=O)Nc1ccc2c(c1)c(C)c(C)n2-c1nc(Nc2cnn(C)c2)ncc1F", "Kd": "0.1 to 100 nM"}
{"inputSmiles": "C=CC(=O)Nc1ccc2c(c1)c(C)cn2-c1nc(Nc2ccnn2C)ncc1Cl", "Kd": "0.1 to 100 nM"}

Write down measured Kd (FGFR1 (Homo sapiens)) for this compound. `C=CC(=O)Nc1ccc2c(c1)c(C)cn2-c1nc(Nc2cc(C)nn2C)ncc1C` 0.1 to 100 nM

Write down measured Kd (FGFR1 (Homo sapiens)) for this compound. `C=CC(=O)Nc1ccc2c(c1)c(C)cn2-c1nc(Nc2cn(C)nc2C#N)ncc1Cl` 100 to 250 nM
